Assignment: determine reported pIC50 for the given compounds.
Target: protein kinase D3 (PKD3) (Homo sapiens)
Construct: This assay is performed with full length wild-type enzyme that is purchased from Invitrogen; purchased Invitrogen
Sequence (O94806 1-890): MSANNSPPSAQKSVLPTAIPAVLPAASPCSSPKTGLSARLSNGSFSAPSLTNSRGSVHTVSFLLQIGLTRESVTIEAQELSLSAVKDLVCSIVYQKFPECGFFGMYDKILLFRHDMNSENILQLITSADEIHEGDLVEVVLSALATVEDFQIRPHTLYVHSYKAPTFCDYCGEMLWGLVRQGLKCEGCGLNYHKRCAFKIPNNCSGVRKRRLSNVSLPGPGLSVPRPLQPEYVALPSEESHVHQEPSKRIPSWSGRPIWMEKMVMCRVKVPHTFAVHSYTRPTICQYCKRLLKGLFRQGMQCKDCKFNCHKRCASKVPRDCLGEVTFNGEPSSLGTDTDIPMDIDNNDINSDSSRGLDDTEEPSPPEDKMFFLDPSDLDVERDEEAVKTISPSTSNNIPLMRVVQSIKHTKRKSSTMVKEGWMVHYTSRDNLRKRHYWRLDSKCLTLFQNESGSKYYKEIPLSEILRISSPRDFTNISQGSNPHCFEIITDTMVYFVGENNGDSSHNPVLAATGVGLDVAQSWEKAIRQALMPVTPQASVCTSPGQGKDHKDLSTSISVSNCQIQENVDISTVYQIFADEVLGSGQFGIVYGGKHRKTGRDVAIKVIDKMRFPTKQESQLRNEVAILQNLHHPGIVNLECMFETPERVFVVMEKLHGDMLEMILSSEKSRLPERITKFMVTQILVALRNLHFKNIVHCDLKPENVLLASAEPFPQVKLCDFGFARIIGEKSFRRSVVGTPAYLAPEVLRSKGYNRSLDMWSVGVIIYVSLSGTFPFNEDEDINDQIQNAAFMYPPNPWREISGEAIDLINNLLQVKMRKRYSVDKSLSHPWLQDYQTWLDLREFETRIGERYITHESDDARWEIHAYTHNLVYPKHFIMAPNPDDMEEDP
Test: PKD3 TR-FRET (LANCE) kinase assay
Type: biochemical
Details: full length wild-type enzyme, 20 μM ATP; read-out: Inhibitory Activity PKD3
Answers are plain numbers, as −log10 of the molar value.

{"Compound": "O=C(NC1CC1)C1CCN(c2nc(-c3ccnc(NC4CCOCC4)c3)cc3cnccc23)CC1", "Measured Target": "protein kinase D3 (PKD3) (Homo sapiens)", "Experimental Endpoint": "pIC50", "Measured Value": 8.52}
{"Compound": "NC(=O)C1CCN(c2nc(-c3ccnc(NC4CCCCC4)c3)cc3cnccc23)CC1", "Measured Target": "protein kinase D3 (PKD3) (Homo sapiens)", "Experimental Endpoint": "pIC50", "Measured Value": 7.08}
{"Compound": "CC(=O)N1CCN(c2nc(-c3ccnc(NC4CCCCC4)c3)cc3cnccc23)CC1", "Measured Target": "protein kinase D3 (PKD3) (Homo sapiens)", "Experimental Endpoint": "pIC50", "Measured Value": 7.64}
{"Compound": "CN(C)CCNc1nc(-c2ccnc(Nc3ccccc3)c2)cc2cnccc12", "Measured Target": "protein kinase D3 (PKD3) (Homo sapiens)", "Experimental Endpoint": "pIC50", "Measured Value": 7.41}
{"Compound": "OCCNc1nc(-c2ccnc(NC3CCCCC3)c2)cc2cnccc12", "Measured Target": "protein kinase D3 (PKD3) (Homo sapiens)", "Experimental Endpoint": "pIC50", "Measured Value": 6.47}

For every record below, what is its pIC50?
1. c1cc2c(N3CCNCC3)nc(-c3ccnc(NC4CCCCC4)c3)cc2cn1
2. c1ccc(Nc2cc(-c3cc4cnccc4c(N4CCNCC4)n3)ccn2)cc1
3. Cn1ccc(Nc2cc(-c3cc4cnccc4c(N4CCC(C(N)=O)CC4)n3)ccn2)n1
4. CN(C)CCNc1nc(-c2ccnc(NC3CCCCC3)c2)cc2cnccc12

9.52
8.10
9.40
7.24

Data provenance: patent US20120142685A1
